Tgt: EPHA8 (human) (UniProt P29322)
Sequence (P29322 whole entry, looked up): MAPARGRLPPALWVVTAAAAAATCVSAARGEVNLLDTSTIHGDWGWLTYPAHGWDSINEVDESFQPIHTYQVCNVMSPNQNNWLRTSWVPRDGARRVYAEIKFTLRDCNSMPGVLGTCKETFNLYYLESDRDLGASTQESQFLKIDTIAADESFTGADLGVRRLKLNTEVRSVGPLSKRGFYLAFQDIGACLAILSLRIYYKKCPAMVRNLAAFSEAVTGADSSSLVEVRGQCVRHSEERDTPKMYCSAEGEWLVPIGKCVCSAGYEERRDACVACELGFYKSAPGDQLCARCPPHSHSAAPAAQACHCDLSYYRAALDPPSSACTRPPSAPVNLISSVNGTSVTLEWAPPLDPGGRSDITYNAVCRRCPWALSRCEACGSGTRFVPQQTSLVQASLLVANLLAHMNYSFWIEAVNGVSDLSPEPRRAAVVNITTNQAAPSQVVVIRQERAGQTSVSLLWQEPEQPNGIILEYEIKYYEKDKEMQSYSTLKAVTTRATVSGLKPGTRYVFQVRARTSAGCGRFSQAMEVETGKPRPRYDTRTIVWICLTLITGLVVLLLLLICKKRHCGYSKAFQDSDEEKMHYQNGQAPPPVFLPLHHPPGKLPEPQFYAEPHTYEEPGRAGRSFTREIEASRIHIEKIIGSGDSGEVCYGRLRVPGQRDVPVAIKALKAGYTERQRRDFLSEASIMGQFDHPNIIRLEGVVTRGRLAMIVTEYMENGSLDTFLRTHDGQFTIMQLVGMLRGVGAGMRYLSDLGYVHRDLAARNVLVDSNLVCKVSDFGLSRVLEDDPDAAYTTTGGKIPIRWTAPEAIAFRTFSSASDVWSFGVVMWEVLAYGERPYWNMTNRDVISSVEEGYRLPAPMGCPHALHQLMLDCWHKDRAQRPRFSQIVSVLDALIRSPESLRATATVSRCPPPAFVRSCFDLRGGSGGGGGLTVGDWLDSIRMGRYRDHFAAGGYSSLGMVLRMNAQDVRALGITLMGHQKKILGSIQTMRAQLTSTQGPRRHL
Assay protocol: KINOMEscan competition binding
Condition description: compound 10.0 µM
For each entry below, report its kinase still bound, per cent of control value.
Numbers only here, please. The scale is %.

input: Jot down kinase still bound, per cent of control (EPHA8 (human) (UniProt P29322)) of `COc1cc(N2CCC(C(N)=O)CC2)ccc1Nc1nc(N)c(Cl)c(Nc2ccccc2S(=O)(=O)C(C)C)n1` .
output: 100

input: Jot down kinase still bound, per cent of control (EPHA8 (human) (UniProt P29322)) of `C=CC(=O)Nc1ccc(C(=O)c2sc(Nc3ccc(N4CCN(C)CC4)cc3OC)nc2N)cc1` .
output: 88

input: Jot down kinase still bound, per cent of control (EPHA8 (human) (UniProt P29322)) of `COc1cc2ncnc(Nc3cccc(Cl)c3)c2cc1OC` .
output: 38

input: Jot down kinase still bound, per cent of control (EPHA8 (human) (UniProt P29322)) of `COc1cc2c(Nc3ccc(NC(=O)c4ccccc4)cc3)ncnc2cc1OCCCN1CCOCC1` .
output: 83

input: Jot down kinase still bound, per cent of control (EPHA8 (human) (UniProt P29322)) of `CNC(=O)Nc1ccc(-c2nc(N3CC4CCC(C3)O4)c3cnn(C4CCC5(CC4)OCCO5)c3n2)cc1` .
output: 81

input: Jot down kinase still bound, per cent of control (EPHA8 (human) (UniProt P29322)) of `CCN(CCO)CCCOc1ccc2c(Nc3cc(CC(=O)Nc4cccc(F)c4)[nH]n3)ncnc2c1` .
output: 90

input: Jot down kinase still bound, per cent of control (EPHA8 (human) (UniProt P29322)) of `Cc1cn(-c2cc(C(=O)Nc3ccc(C)c(NC(=O)c4ccno4)c3)cc(C(F)(F)F)c2)cn1` .
output: 0.3

input: Jot down kinase still bound, per cent of control (EPHA8 (human) (UniProt P29322)) of `N#Cc1cc(-c2ccnc(Nc3ccc(-n4cnc(-c5cccnc5)n4)cc3)n2)cc(N2CCOCC2)c1` .
output: 93

input: Jot down kinase still bound, per cent of control (EPHA8 (human) (UniProt P29322)) of `COc1ccc(N(C(=O)Oc2cc(C(=O)Nc3cccc(C(F)(F)F)c3)ccc2C)c2ccnc(Nc3ccc(N4CCN(C)CC4)cc3)n2)c(OC)c1` .
output: 0
